# Tested on: NCI-H358
# TEST METHOD NOTES: relative viability (nuclei count vs DMSO), 5 days (fraction); higher = more cells survive
# COND: first compound 0.1265 µM
OUTCOME MEASURE: relative viability

For orientation, consider the following solved cases.
COMPOUND	OUTCOME MEASURE	VALUE MEASURED
Clc1ccc(Nc2nnc(Cc3ccncc3)c3ccccc23)cc1 [Vatalanib] + C[C@@H](Oc1cc(-c2cnn(C3CCNCC3)c2)cnc1N)c1c(Cl)ccc(F)c1Cl [Crizotinib] (partner 1 µM)	relative viability	0.522
Clc1ccc(Nc2nnc(Cc3ccncc3)c3ccccc23)cc1 [Vatalanib] + O=C(c1cc(Cc2n[nH]c(=O)c3ccccc23)ccc1F)N1CCN(C(=O)C2CC2)CC1 [Olaparib] (partner 8 µM)	relative viability	0.548
C[C@@H]1CN(CC(=O)Nc2ccc3c(c2)Cc2cccc(-c4cc(=O)cc(N5CCOCC5)o4)c2S3)C[C@H](C)O1 + C[C@@H](Oc1cc(-c2cnn(C3CCNCC3)c2)cnc1N)c1c(Cl)ccc(F)c1Cl [Crizotinib] (partner 1 µM)	relative viability	0.465

Task: Which relative viability is reported for this compound? C[C@@H]1CN(CC(=O)Nc2ccc3c(c2)Cc2cccc(-c4cc(=O)cc(N5CCOCC5)o4)c2S3)C[C@H](C)O1 + N=C(N)NC(=N)NCCc1ccccc1 [Phenformin] (partner 250 µM)
Output: 0.28

Task: Which relative viability is reported for this compound? Clc1ccc(Nc2nnc(Cc3ccncc3)c3ccccc23)cc1 [Vatalanib] + Nc1nc2[nH]cc(CCc3ccc(C(=O)N[C@@H](CCC(=O)O)C(=O)O)cc3)c2c(=O)[nH]1 [Pemetrexed] (partner 0.2 µM)
Output: 0.149

###

relative viability reference
# Tested on: PC-3 [JPC-3]
# TEST METHOD NOTES: relative viability (nuclei count vs DMSO), 5 days (fraction); higher = more cells survive
# COND: first compound 0.8 µM

COMPOUND	relative viability
CCCCCCCCCCCC1=C(O)C(=O)C=C(O)C1=O [Embelin] + Nc1ncn([C@H]2C[C@H](O)[C@@H](CO)O2)c(=O)n1 [Decitabine] (partner 2 µM)	0.882

Task: Given the entry CCCCCCCCCCCC1=C(O)C(=O)C=C(O)C1=O [Embelin] + COc1cc2c(Oc3ccc(NC(=O)C4(C(=O)Nc5ccc(F)cc5)CC4)cc3F)ccnc2cc1OCCCN1CCOCC1 [Foretinib] (partner 0.25 µM) , what relative viability was observed with PC-3 [JPC-3]?
Output: 1.02

Task: Given the entry CCCCCCCCCCCC1=C(O)C(=O)C=C(O)C1=O [Embelin] + CCNC(=O)c1noc(-c2cc(C(C)C)c(O)cc2O)c1-c1ccc(CN2CCOCC2)cc1 [Luminespib] (partner 0.01 µM) , what relative viability was observed with PC-3 [JPC-3]?
Output: 0.752

Task: Given the entry CCCCCCCCCCCC1=C(O)C(=O)C=C(O)C1=O [Embelin] + COc1cccc2cc(-c3nc([C@H]4CC[C@H](C(=O)O)CC4)n4ncnc(N)c34)[nH]c12 [OSI-027] (partner 0.5 µM) , what relative viability was observed with PC-3 [JPC-3]?
Output: 0.752

###

# Tested on: HCC-366
# TEST METHOD NOTES: relative viability (nuclei count vs DMSO), 5 days (fraction); higher = more cells survive
# COND: first compound 0.1265 µM
relative viability reference
I'd appreciate a reply containing only the number, no unit.

For orientation, consider the following solved cases.
MOLECULE	OUTCOME MEASURE	VALUE MEASURED
Clc1ccc(Nc2nnc(Cc3ccncc3)c3ccccc23)cc1 [Vatalanib] + C[C@]1(O)C[C@@H](c2nc(-c3ccc4ccc(-c5ccccc5)nc4c3)c3c(N)nccn32)C1 [Linsitinib] (partner 1 µM)	relative viability	0.456
C[C@@H]1CN(CC(=O)Nc2ccc3c(c2)Cc2cccc(-c4cc(=O)cc(N5CCOCC5)o4)c2S3)C[C@H](C)O1 + Nc1ncn([C@H]2C[C@H](O)[C@@H](CO)O2)c(=O)n1 [Decitabine] (partner 2 µM)	relative viability	0.348
COc1cc(N2CCC(C(N)=O)CC2)ccc1Nc1nc(N)c(Cl)c(Nc2ccccc2S(=O)(=O)C(C)C)n1 [HG-5-88-01] + O=C(c1cc(Cc2n[nH]c(=O)c3ccccc23)ccc1F)N1CCN(C(=O)C2CC2)CC1 [Olaparib] (partner 8 µM)	relative viability	0.391
COc1cc(N2CCC(C(N)=O)CC2)ccc1Nc1nc(N)c(Cl)c(Nc2ccccc2S(=O)(=O)C(C)C)n1 [HG-5-88-01] + CS(=O)(=O)N1CCN(Cc2cc3nc(-c4cccc5[nH]ncc45)nc(N4CCOCC4)c3s2)CC1 [Pictilisib] (partner 1 µM)	relative viability	0.16
COc1cc(N2CCC(C(N)=O)CC2)ccc1Nc1nc(N)c(Cl)c(Nc2ccccc2S(=O)(=O)C(C)C)n1 [HG-5-88-01] + N=C(N)NC(=N)NCCc1ccccc1 [Phenformin] (partner 250 µM)	relative viability	0.634

Task: Which relative viability is reported for this molecule? C[C@@H]1CN(CC(=O)Nc2ccc3c(c2)Cc2cccc(-c4cc(=O)cc(N5CCOCC5)o4)c2S3)C[C@H](C)O1 + Cc1cc(Nc2cc(N3CCN(C)CC3)nc(Sc3ccc(NC(=O)C4CC4)cc3)n2)n[nH]1 [Tozasertib] (partner 0.1 µM)
Output: 0.132

Task: Which relative viability is reported for this molecule? COc1cc(N2CCC(C(N)=O)CC2)ccc1Nc1nc(N)c(Cl)c(Nc2ccccc2S(=O)(=O)C(C)C)n1 [HG-5-88-01] + COc1cc2c(Oc3ccc(NC(=O)C4(C(=O)Nc5ccc(F)cc5)CC4)cc3F)ccnc2cc1OCCCN1CCOCC1 [Foretinib] (partner 0.25 µM)
Output: 0.915

Task: Which relative viability is reported for this molecule? Clc1ccc(Nc2nnc(Cc3ccncc3)c3ccccc23)cc1 [Vatalanib] + Cc1cc(Nc2cc(N3CCN(C)CC3)nc(Sc3ccc(NC(=O)C4CC4)cc3)n2)n[nH]1 [Tozasertib] (partner 0.1 µM)
Output: 0.0909
